From: patent US20250115565A1

test_protocol: Relative bioavailability and brain exposure of d3-IM-250 HCl salt versus IM-250 HCl salt in male mice (Example 12)
Format: in vivo
condition_parameters: mouse, brain and whole blood; male C57bl/6 mice, single oral dose 10 mg/kg, 24 h post dose; read-out: blood/brain ratio
Counter-ions that a name gives are not always drawn.
Each entry below lists one item and its recorded Kp at 24 h value.

>  <compound>
Cc1nc(N(C)C(=O)Cc2ccc(-c3cc(F)ccc3F)cc2)sc1[S@@](C)(=N)=O [IM-250 HCl salt]

>  <value_measured>
0.6

$$$$

Item under review: [2H]C([2H])([2H])c1nc(N(C)C(=O)Cc2ccc(-c3cc(F)ccc3F)cc2)sc1[S@@](C)(=N)=O [d3-IM-250 HCl salt] . Reported Kp at 24 h?
0.49
